subject_of_test: DLL3 endogenously expressed on NCI-H82 cells (UniProt Q9NYJ7)
Sequence (Q9NYJ7 27-618): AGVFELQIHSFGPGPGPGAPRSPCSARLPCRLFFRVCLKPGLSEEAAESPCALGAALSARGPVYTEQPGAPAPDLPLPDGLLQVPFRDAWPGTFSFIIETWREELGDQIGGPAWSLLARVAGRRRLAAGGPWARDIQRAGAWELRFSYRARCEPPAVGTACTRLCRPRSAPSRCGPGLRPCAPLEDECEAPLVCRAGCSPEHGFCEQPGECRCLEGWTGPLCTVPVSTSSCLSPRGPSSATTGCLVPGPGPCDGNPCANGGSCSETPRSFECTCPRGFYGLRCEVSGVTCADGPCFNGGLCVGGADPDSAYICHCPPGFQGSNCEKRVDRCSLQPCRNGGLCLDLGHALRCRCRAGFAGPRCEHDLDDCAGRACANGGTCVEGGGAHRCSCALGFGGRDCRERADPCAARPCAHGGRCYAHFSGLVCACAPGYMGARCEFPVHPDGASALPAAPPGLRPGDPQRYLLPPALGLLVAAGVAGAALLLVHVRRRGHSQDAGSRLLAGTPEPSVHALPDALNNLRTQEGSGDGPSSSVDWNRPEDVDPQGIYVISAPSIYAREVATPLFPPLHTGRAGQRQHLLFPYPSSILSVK
protocol_details: FACS on NCI-H82 cells; antibody 0.16 nM
Exercise: state measured MFI for each of the binders provided.
Answers are plain numbers.

Hab015VL4VH1b-hFc (scFv, part only; not given: VL-VH linker and human IgG1 Fc, V domains shown, not shown: another chain or arm of the molecule; a dimerising Fc or GST; small tags and cut ends) VL: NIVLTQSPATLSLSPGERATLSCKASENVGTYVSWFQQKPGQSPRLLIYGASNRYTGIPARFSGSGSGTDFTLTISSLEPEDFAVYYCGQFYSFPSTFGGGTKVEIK VH: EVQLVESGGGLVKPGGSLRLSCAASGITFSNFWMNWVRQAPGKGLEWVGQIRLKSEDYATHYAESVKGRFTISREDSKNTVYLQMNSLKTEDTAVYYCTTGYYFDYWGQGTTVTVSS: 461

Next up:
Query: Quick one: give measured MFI for mab009 scFv-hFc (Fc fusion, part only; not given: Linker and human IgG1 Fc, not shown: a dimerising Fc or GST) chain, part: DIVMTQSPATLSVTPGDRVSLSCRASQTISDYLHWYQQRSHESPRLLIKYASQSISGIPSRFSGSGSGSDFTLSINSVEPEDVGVYYCQNGHSFPLTFGAGTKLELKEVQLQQSGTVLARPGASVKMSCKTSGYTFTSYWMHWVKQSPGQGLEWIGTIYPGNSDTRYNQKFKDKAYVTAVTSASTAYMELSSLTNEESAVYYCTRSYDYGDLDYWGQGTTLTVSS
Reply: 673
